biological target: T1, cynomolgus CD8 (captured on the Octet biosensor) (cynomolgus); assay: Octet (BLI); cynomolgus CD8 captured, dipped into multiple concentrations of the one-arm mAb
T1 construct: Construct not described; also called cyno CD8; cyno CD8a
Quantity Kind: kon (M⁻¹ s⁻¹)
Numbers only, in M⁻¹ s⁻¹.

Examples from the recorded data:
binder="XENP26231 (antibody, V domains shown, also called OKT8_H2.154_L1.103 one-arm mAb) VH: QVQLVQSGAEVKKPGASVKVSCKASGFNIKDTYIHWVRQAPGKGLEWMGRIDPDNGETLYASKFQGRVTITADTSINTAYMELSRLRSDDTAVYYCGRGYGKYVFDHWGQGTTVTVSS VL: AIKMTQSPSSLSASVGDRVTITCRTSRSISKYLAWYQEKPGKTNKLLIYSGSTLQSGIPSRFSGSGSGTDFTLTISSLQPEDFATYYCQQHNENPLTFGAGTKLEIK" endpoint_value=92500
binder="XENP26233 (antibody, V domains shown, also called OKT8_H2.156_L1.103 one-arm mAb) VH: QVQLVQSGAEVKKPGASVKVSCKASGFNIKDTYIHWVRQAPGKGLEWMGRIDPDNGETLYASKFQGRVTITADTSINTAYMELSRLRSDDTAVYYCGRGWGYYVFDHWGQGTTVTVSS VL: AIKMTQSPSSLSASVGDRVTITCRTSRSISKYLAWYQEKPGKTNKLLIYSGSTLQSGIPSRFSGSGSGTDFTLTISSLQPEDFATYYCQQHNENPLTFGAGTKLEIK" endpoint_value=200000

--- query ---
Recorded kon of XENP26242 (antibody, V domains shown, also called OKT8_H2.165_L1.103 one-arm mAb) VH: QVQLVQSGAEVKKPGASVKVSCKASGFNIKDTYIHWVRQAPGKGLEWMGRIDPDNDETLYASKFQGRVTMTADTSINTAYMELSRLRSDDTAVYYCGRGYGYYYFDHWGQGTTVTVSS VL: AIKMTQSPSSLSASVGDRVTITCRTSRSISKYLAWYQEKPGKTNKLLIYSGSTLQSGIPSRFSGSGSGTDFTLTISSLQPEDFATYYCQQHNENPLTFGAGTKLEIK , please.
322000
